Reference source: paper PMC5540273

- System: NDR1
- Construct: gene STK38
- Condition: concentration: 1 μM, replicates: in singlicate; n = 1;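 note: KINOMEscan kinase panel screen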
Assay endpoint: %Inh (%)
One number for each entry, in %.

// worked examples, %Inh included
>>> endpoint_value("COc1ccc(Nc2nccc(-c3cccc(NC(=O)c4cc5cc(F)ccc5[nH]4)c3)n2)cc1")
0
>>> endpoint_value("Cc1cccc(-c2cc(Nc3ccncc3)c3ccccc3n2)n1")
0
>>> endpoint_value("Cl.NC(=O)c1cccc(Nc2nccc(Nc3ccc(Oc4cccc(Cl)c4)c(Cl)c3)n2)c1")
0
>>> endpoint_value("Cn1ccc2ncnc(Oc3cccc(C(=O)Nc4ccccc4)c3)c21")
14

Please report %Inh for every entry that follows.
1. O=C(Nc1ccccc1)Nc1cccc(Oc2ccc3nccn3n2)c1
2. COc1ccc(Nc2nccc(NCCNC(=O)Nc3ccccc3F)n2)cc1
3. COc1cc2nccc(Nc3ccc(NC(=O)c4ccc(C)cc4)c(O)c3)c2cc1OC.Cl
4. Cl.Oc1ccc(-c2nc(-c3ccccc3)[nH]c2-c2ccncc2)cc1
5. COc1cccc(-c2cc(-c3c[nH]nc3-c3ccccn3)ccn2)c1

A)
[4, 26, 0, 12, 16]

----------
- System: HUNK
- Condition: concentration: 1 μM, replicates: in singlicate; n = 1
Assay endpoint: %Inh (%)
Numbers only, in %.

// worked examples, %Inh included
>>> endpoint_value("O=C1NC(=O)C(N2CCc3ccccc32)=C1c1ccccc1Cl [SB-373598]")
13
>>> endpoint_value("COc1cc(Nc2nccc(N3CCC(NC(=O)Nc4cc(C)ccc4C)C3)n2)cc(OC)c1OC (stereo not drawn) [GSK1379762]")
0
>>> endpoint_value("Cc1csc(-c2nc(Nc3ccncc3)c3ccccc3n2)n1 [GW869640]")
0
>>> endpoint_value("CSc1nn2c(=O)cc(N3CCOCC3)nc2n1Cc1cccc(C(F)(F)F)c1C [GSK2363608]")
0
>>> endpoint_value("CC(C)(C)c1ccc(C(=O)Nc2cn3cc(-c4cccnc4)ccc3n2)cc1")
0

Please report %Inh for every entry that follows.
1. COc1ccc(Nc2nccc(-c3cccc(NC(=O)c4cc5cc(F)ccc5[nH]4)c3)n2)cc1 [GSK1229782]
2. CCn1c(-c2ccccn2)nc2cnccc21 [SB-736398]
3. COc1ccc2nc(-c3cccc(C)n3)nc(Nc3ccncc3)c2c1 [GSK204919]
4. Cc1ccc(NC(=O)Nc2cc(C(C)(C)C)nn2-c2ccccc2)cc1 [GSK1014915]

A)
[8, 7, 9, 0]

----------
- System: CLK3
- Condition: concentration: 1 μM, replicates: in singlicate; n = 1
Labelling field: enter Condition met if recorded %Inh is less than 40%. Enter Condition not met if it equals or exceeds that cut-off.

These solved cases illustrate the format of a correct answer.
>>> class_name("O=C(Nc1n[nH]c2nc(-c3nccs3)c(Br)cc12)C1CCCC1")
"Condition met"
>>> class_name("COc1cccc(NC(=O)NC2CCN(c3ccnc(Nc4ccc(F)cc4)n3)C2)c1 (centres unmarked)")
"Condition met"
>>> class_name("NC(=O)c1nnc2ccccc2c1N")
"Condition met"

Q) Below 40% on %Inh? Entry CC1=C(C(=O)Nc2cc3cn[nH]c3cc2F)C(c2ccc(C(F)(F)F)cc2)CC(=O)N1 (centres unmarked)
A) Condition met

Q) Below 40% on %Inh? Entry Cn1cncc1-c1ccc2ncnc(Nc3ccc(OCc4ccccc4)cc3)c2c1
A) Condition not met
